Just for reference, patent US20260224526A1 is where these values come from.

methodNotes: Solubility
Type: physicochemical
conditionContext: organic solvent or mixture; MTBE (Methyl tert-butyl ether); read-out: Solubility
experimentalReadout: solubility

Prompt: # solubility lookup, item CCCCCCOC(=O)NC(=N)c1ccc(CNC(=O)[C@@H]2CCCN2C(=O)[C@@H](CC(C)C)NCC(=O)OCC)cc1 [Form I]
Completion: < 300 µg/mL

----------
methodNotes: Solubility
Type: physicochemical
conditionContext: organic solvent or mixture; NBA (n-Butanol); read-out: Solubility
experimentalReadout: solubility

Prompt: # solubility lookup, item CCCCCCOC(=O)NC(=N)c1ccc(CNC(=O)[C@@H]2CCCN2C(=O)[C@@H](CC(C)C)NCC(=O)OCC)cc1 [Form I]
Completion: ~167 mg/mL
